Assay: Integrated area under the plasma drug level-time curve was determined in portal circulation after intraduodenal dose of 10 mg/kg in monkey
Type: ADME, organism-based
Set-up: dose 10 mg/kg, route intraduodenal
Conditions: simiiformes
Each entry below carries its reported AUC.
The response must be a number in ng·h/mL with no trailing unit.

Example compounds with recorded AUC:
COMPOUND | MEASUREMENT UNIT | AUC
CC(C)C[C@H](O)[C@H](O)[C@H](CC1CCCCC1)NC(=O)[C@H](Cc1cscn1)NC(=O)[C@H](Cc1ccccc1)CS(=O)(=O)N1CCN(C)CC1 | ng·h/mL | 3800
CC(C)C[C@H](O)[C@H](O)[C@H](CC1CCCCC1)NC(=O)[C@H](Cc1cscn1)NC(=O)[C@H](Cc1ccccc1)CS(=O)(=O)C1CCN(C)CC1 | ng·h/mL | 530

Moving on to another compound below.
QUERY: Quick one: give measured AUC for CC(C)C[C@H](O)[C@H](O)[C@H](CC1CCCCC1)NC(=O)[C@H](Cc1cscn1)NC(=O)[C@@H](CC(=O)N(C)CCc1ccccn1)Cc1ccccc1
RESULT: 3400
